B1: TRAF3IP2 (parent)
chain: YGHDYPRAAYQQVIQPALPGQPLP

# Variants of: B1
# assay-details: protein stability index of a GFP-peptide fusion (GPS, HEK-293T) (PSI 1-6); higher = more stable;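 further: lentivirally expressed fusions sorted by FACS into six bins by GFP to DsRed ratio, PSI derived from sequencing read proportions per bin multiplied by bin number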
# condition-context: c terminus: a fixed tail appended
Short version: protein stability index at least 2 is Criterion met, less is Criterion not met.

[[record]]
var = "D4Q"
category = "Criterion not met"

[[record]]
var = "P6I"
category = "Criterion not met"

[[record]]
var = "P16L"
category = "Criterion not met"

[[record]]
var = "L18C"
category = "Criterion not met"

[[record]]
var = "H3M"
category = "Criterion not met"

[[record]]
var = "H3N"
category = "Criterion not met"

[[record]]
var = "P24G"
category = "Criterion met"

[[record]]
var = "D4F"
category = "Criterion not met"

[[record]]
var = "P6K"
category = "Criterion met"

[[record]]
var = "P19C"
category = "Criterion met"

[[record]]
var = "P6E"
category = "Criterion met"

[[record]]
var = "A17G"
category = "Criterion not met"

[[record]]
var = "P16E"
category = "Criterion met"

[[record]]
var = "A17W"
category = "Criterion not met"

[[record]]
var = "Q21V"
category = "Criterion met"

[[record]]
var = "A17Q"
category = "Criterion not met"

[[record]]
var = "L23W"
category = "Criterion not met"

[[record]]
var = "Q15N"
category = "Criterion not met"

[[record]]
var = "P22F"
category = "Criterion met"

[[record]]
var = "Q12T"
category = "Criterion not met"

[[record]]
var = "R7A"
category = "Criterion met"

